Attribution: ChEMBL document CHEMBL1201862

Biological target: UniProtKB P9WHJ3
Assay: Fluorescence Cell-Free Homogeneous Dose Retest to Identify Inhibitors of RecA-Intein Splicing Activity. [Related pubchem assays (depositor defined):AID2097, AID2223, AID489010, AID492950]
Assay type: functional
Active and inactive are the calls of the source. Rule as the data show it: actives have a measured EC50 and inactives only a lower limit.
metric: EC50

I'd like to know its EC50. The compound in question is COc1ccccc1/N=C1\C(Cl)=C(O)OC1OC(=O)c1ccco1 (stereo not given)
13.4 µM (active)

Repeat for the following compound: COc1ccc(N2C(=O)C(Cl)=C(N3CCOCC3)C2=O)cc1
3 µM (active)

Repeat for the following compound: N#CC1=C(N)Oc2[nH]nc(-c3ccccc3)c2C1c1ccsc1 (stereo not given)
0.731 µM (active)

Repeat for the following compound: COc1ccc(-c2cc(CNC(=O)CCl)on2)cc1
17.7 µM (active)

Repeat for the following compound: CN(c1ccccc1)c1ccc([N+](=O)[O-])c2nonc12
5.22 µM (active)

###

Assay: luciferase reporter signal suppression in cells – H4 neuroglioma cells, luminescence, dose response (AID 1990)
Assay type: functional, cell-based
Calls of active or inactive are those of the source. No stated cut-off is given here; in the data, actives have a measured EC50 and inactives only a lower limit.
metric: EC50

I'd like to know its EC50. The molecule in question is CCOC(=O)c1c(C)[nH]c(C)c1C(=O)Cn1nnc(-c2ccccc2C)n1
> 60 µM (not active)

Repeat for the following molecule: C/C(=N\Nc1nc(-c2ccccn2)nc2ccccc12)c1ccc(F)cc1
9.76 µM (active)

Repeat for the following molecule: Cc1c(CCC(C)C)c(O)n2c(nc3ccccc32)c1C#N
69.3 µM (active)

Repeat for the following molecule: COc1cccc2c1OC1(C)CC2NC(=O)N1Cc1ccccc1 (stereo unspecified)
21.6 µM (active)

Repeat for the following molecule: CCCn1c(-c2cccc([N+](=O)[O-])c2)nc2c1c(=O)[nH]c(=O)n2Cc1ccccc1
17.5 µM (active)

Repeat for the following molecule: O=C(N=Nc1c(O)[nH]c2ccc(Br)cc12)c1cc(-c2cccs2)nc2ccccc12
> 120 µM (not active)
